Each item that follows carries a reported PBM binding z-score.
Test system: RARg homodimer (NR concentration 270 nM)
Assay: PBM binding z-score (relative to random genomic background probes); higher = stronger binding; sequences stand for … in GC…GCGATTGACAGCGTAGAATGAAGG
measure: PBM binding z-score

# sequence.code, measured.target, recorded.measurement
records = [
    ("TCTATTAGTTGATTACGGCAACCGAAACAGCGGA", "RARg homodimer (NR concentration 270 nM)", 0.426),
    ("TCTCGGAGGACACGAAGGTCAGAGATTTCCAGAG", "RARg homodimer (NR concentration 270 nM)", 4.12),
    ("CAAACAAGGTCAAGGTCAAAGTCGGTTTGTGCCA", "RARg homodimer (NR concentration 270 nM)", 7.76),
    ("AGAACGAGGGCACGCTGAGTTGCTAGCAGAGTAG", "RARg homodimer (NR concentration 270 nM)", 1.95),
    ("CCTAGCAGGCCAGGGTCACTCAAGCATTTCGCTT", "RARg homodimer (NR concentration 270 nM)", 2.84),
    ("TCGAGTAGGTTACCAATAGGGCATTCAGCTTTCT", "RARg homodimer (NR concentration 270 nM)", 0.593),
    ("TGAATGAGGTTATATGATCAGGGAACGTTGCAAA", "RARg homodimer (NR concentration 270 nM)", 0.971),
    ("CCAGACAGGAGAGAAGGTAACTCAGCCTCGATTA", "RARg homodimer (NR concentration 270 nM)", 0.0804),
    ("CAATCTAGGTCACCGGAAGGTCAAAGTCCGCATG", "RARg homodimer (NR concentration 270 nM)", 7.81),
    ("CCTAGTTTGTCAAGGTCACACACGCTATAGGTAC", "RARg homodimer (NR concentration 270 nM)", 4.58),
    ("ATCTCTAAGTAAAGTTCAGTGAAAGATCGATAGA", "RARg homodimer (NR concentration 270 nM)", 2.42),
    ("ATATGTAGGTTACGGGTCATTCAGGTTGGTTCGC", "RARg homodimer (NR concentration 270 nM)", 2.58),
    ("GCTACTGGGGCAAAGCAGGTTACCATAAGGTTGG", "RARg homodimer (NR concentration 270 nM)", 0.791),
    ("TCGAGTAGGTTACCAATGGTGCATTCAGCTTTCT", "RARg homodimer (NR concentration 270 nM)", 0.0849),
    ("ATCTCTAGGTAAGACCCAGTTCAGTGAAGAACGC", "RARg homodimer (NR concentration 270 nM)", 0.0331),
    ("TCTAGCAGGCCAGAGGGTAACTCAAGAGGTACGG", "RARg homodimer (NR concentration 270 nM)", 0.174),
    ("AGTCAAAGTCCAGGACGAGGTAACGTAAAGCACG", "RARg homodimer (NR concentration 270 nM)", 0.688),
    ("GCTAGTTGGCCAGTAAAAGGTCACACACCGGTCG", "RARg homodimer (NR concentration 270 nM)", 4.08),
    ("AATACAGGGTCATAGTAGGCCAGAGTACGCACAG", "RARg homodimer (NR concentration 270 nM)", 4.13),
    ("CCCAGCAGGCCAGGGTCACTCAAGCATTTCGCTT", "RARg homodimer (NR concentration 270 nM)", 2.79),
    ("ACTAGTTGGTCAGCTTAGGTCACACACAATTCGG", "RARg homodimer (NR concentration 270 nM)", 3.19),
    ("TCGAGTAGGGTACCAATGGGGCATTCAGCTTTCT", "RARg homodimer (NR concentration 270 nM)", -0.439),
    ("AGAATGAGGTTATTAAGATCAGGGACTTGCGGTC", "RARg homodimer (NR concentration 270 nM)", 0.814),
    ("TGAATGAGGTTAAAGATCAGGTAACGTGGCGTCG", "RARg homodimer (NR concentration 270 nM)", 1.38),
    ("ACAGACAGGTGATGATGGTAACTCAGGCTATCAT", "RARg homodimer (NR concentration 270 nM)", 0.369),
    ("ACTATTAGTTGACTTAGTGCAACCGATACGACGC", "RARg homodimer (NR concentration 270 nM)", 0.65),
]

----------
Each item that follows carries a reported PBM binding z-score.
Tested on: VDR homodimer (NR concentration 270 nM)
Assay: PBM binding z-score (relative to random genomic background probes); higher = stronger binding; sequences stand for … in GC…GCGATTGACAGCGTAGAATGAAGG
measure: PBM binding z-score

# sequence.code, measured.target, recorded.measurement
records = [
    ("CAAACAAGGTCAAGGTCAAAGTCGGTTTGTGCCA", "VDR homodimer (NR concentration 270 nM)", 5.71),
    ("TCTCGGAGGACACGAAAGGTCCGAGCTCGACATC", "VDR homodimer (NR concentration 270 nM)", 0.0895),
    ("CTCGAATGGTCGGTTGAGGTGAGTATACGGATAA", "VDR homodimer (NR concentration 270 nM)", 0.136),
    ("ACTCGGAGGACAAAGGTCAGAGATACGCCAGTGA", "VDR homodimer (NR concentration 270 nM)", 1.56),
    ("ATATGTAGGTTACATCCGGTTCATTCAGGCTATG", "VDR homodimer (NR concentration 270 nM)", 4.45),
    ("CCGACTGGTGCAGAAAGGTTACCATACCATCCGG", "VDR homodimer (NR concentration 270 nM)", -0.229),
    ("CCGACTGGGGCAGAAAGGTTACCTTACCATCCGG", "VDR homodimer (NR concentration 270 nM)", -0.247),
    ("ATACCCAGGTGATCGTGAGGTCGTTGATACTAAC", "VDR homodimer (NR concentration 270 nM)", 2.52),
    ("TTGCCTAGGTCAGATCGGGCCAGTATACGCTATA", "VDR homodimer (NR concentration 270 nM)", -0.389),
    ("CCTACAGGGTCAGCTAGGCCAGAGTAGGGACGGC", "VDR homodimer (NR concentration 270 nM)", 0.899),
    ("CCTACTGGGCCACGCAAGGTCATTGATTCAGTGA", "VDR homodimer (NR concentration 270 nM)", 2.93),
    ("ACAGACAGGGGAGTGAAGGTAACTCAGCTGGACG", "VDR homodimer (NR concentration 270 nM)", -0.467),
]

----------
System: LXRa homodimer (NR concentration 270 nM)
Assay: PBM binding z-score (relative to random genomic background probes); higher = stronger binding; sequences stand for … in GC…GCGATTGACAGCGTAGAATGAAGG
Returns the class for an entry based on its PBM binding z-score. Class ranges: bottom bin: < -0.3; middle bin: ≥ -0.3 and < 0.3; top bin: ≥ 0.3

# sequence.code, discrete.label
records = [
    ("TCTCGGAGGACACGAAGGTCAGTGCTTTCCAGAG", "middle bin"),
    ("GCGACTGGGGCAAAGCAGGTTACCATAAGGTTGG", "bottom bin"),
    ("CCTGCTAGGTCAATGGTCAGCGAAAGCAGCTCGC", "middle bin"),
    ("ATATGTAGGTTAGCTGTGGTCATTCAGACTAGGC", "middle bin"),
    ("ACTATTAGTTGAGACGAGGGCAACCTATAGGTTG", "middle bin"),
    ("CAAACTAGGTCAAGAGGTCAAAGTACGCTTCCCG", "top bin"),
    ("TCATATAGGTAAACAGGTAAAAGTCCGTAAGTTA", "top bin"),
    ("CGTCCAAGGTCAGAGAGGTCAGTCAATGCCGAGT", "top bin"),
    ("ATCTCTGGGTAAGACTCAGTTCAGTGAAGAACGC", "top bin"),
    ("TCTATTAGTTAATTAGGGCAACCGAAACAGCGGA", "top bin"),
    ("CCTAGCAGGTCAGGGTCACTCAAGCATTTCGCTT", "middle bin"),
    ("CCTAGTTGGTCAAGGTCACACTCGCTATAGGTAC", "top bin"),
    ("TCTGCTACGTCAGTTGGTCAGCTAACGAGCTGCC", "bottom bin"),
    ("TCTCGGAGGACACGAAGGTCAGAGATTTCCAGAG", "middle bin"),
    ("ACCGACAGGTGATGAAGGTAACTCAGGCTATCAT", "middle bin"),
    ("CGTCCACGGTCAGCAGGTCAGTGAAAGCGACGTG", "middle bin"),
    ("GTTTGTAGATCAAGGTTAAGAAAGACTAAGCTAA", "top bin"),
    ("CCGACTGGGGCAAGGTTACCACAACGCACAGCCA", "bottom bin"),
    ("CCTACTGGGCCAAGGTCCTTGATCAGTCAAAGCA", "bottom bin"),
    ("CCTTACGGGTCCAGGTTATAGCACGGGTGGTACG", "middle bin"),
    ("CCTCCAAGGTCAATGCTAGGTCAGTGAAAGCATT", "top bin"),
    ("TAGCCTAGGTCATCGGGCCAGTATAGTACGCATC", "top bin"),
    ("CCTACTGGGCCATTCAGACGTCATTGATCATATG", "bottom bin"),
    ("TCAGACAGTTGAAGGTAACTCAGGTACGCAGTCG", "middle bin"),
    ("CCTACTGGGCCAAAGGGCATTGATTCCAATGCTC", "bottom bin"),
    ("CGTCCAAGGTCAAGGCCAGTGAAAGAGACTCGAA", "middle bin"),
]
